Source listed as patent US8445522B2.

Test system: rice brown planthopper
Experiment: Test Example 5: test diluent scattered on rice plant seedling, rice brown planthopper released
Type: in vivo
Settings: Nilaparvata lugens, 144 h; 500 ppm, 10 ml scattered on rice plant seedling, 30 first-instars released, counted after six days at 25° C.; read-out: Control value
measured-parameter: pest or weed control at 500 ppm

// known answers, use as guide
C#Cc1cnccc1-c1nc2cc(C(F)(F)F)ccc2o1
≥ 90%
CCCc1ccc2oc(-c3ccncc3)nc2c1
≥ 90%

Need pest or weed control at 500 ppm for each of these molecules.
1. FC(F)(F)c1cnc2oc(-c3ccncc3)nc2c1
2. FC(F)(F)c1ccc2oc(-c3ccncc3-n3cccn3)nc2c1
3. CC(C)(C)c1ccc2oc(-c3ccncc3C(F)(F)F)nc2c1
4. CCCCCOc1cnccc1-c1nc2cc(C(F)(F)F)ccc2o1

result:
["≥ 90%", "≥ 90%", "≥ 90%", "≥ 90%"]

###

Would you mind telling me the reported pest or weed control at 500 ppm of each entry?
Tested on: rice brown planthopper
Assay: Test Example 5: test diluent scattered on rice plant seedling, rice brown planthopper released
Format: in vivo
Conditions: Nilaparvata lugens, 144 h; 500 ppm, 10 ml scattered on rice plant seedling, 30 first-instars released, counted after six days at 25° C.; read-out: Control value

CC(C)Oc1cnccc1-c1nc2cc3c(cc2o1)C(F)(F)OC3(F)F
≥ 90%
FC(F)(F)COc1cnccc1-c1nc2cc3c(cc2o1)C(F)(F)OC3(F)F
≥ 90%

// switching to the query compound
Query FC(F)(F)c1cnc2oc(-c3ccncc3Cl)nc2c1 yields pest or weed control at 500 ppm of ≥ 90%
